Assay Details: Inhibition of bovine cerebral cortex tubulin polymerization up to 30 mins
Design: species or system Bos taurus
Test Readout: IC50 (µM)
Numbers only; they are read as µM.

Task: Quote IC50 reported for C1=NNCO1 [OXADIAZOLINE] please.
Output: 4.5

* * *

System: NCI-H460
Assay Details: Antiproliferative activity against human NCI-H460 cells after incubation for three generations by MTS assay
Type: functional, cell-based
Test Readout: IC50
Don't forget the unit after the value.

Task: Quote IC50 reported for `Cc1ccc(CCC(=O)Nc2ncc(Cc3cc(Cl)ccc3Cl)s2)o1` please.
Output: 285 nM

* * *

Test system: SF-268
Assay Details: Antiproliferative activity against human SF268 cells after three generation of incubation by MTS assay
Type: functional, cell-based
Test Readout: IC50
Don't forget the unit after the value.

Task: Quote IC50 reported for `Cc1ccc(CCC(=O)Nc2ncc(Cc3cc(Cl)ccc3Cl)s2)o1` please.
Output: 319 nM
